- Test system: LYPLA2
- method-description: competitive ABPP of pPAFAH versus proteome hydrolases – biochemical, gel-based, FP-Rh fluorescence, complex proteome, SAR compounds, selectivity assay for pPAFAH inhibitor project, SAR follow-up (AID 588774);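 for inhibition: 0% = DMSO-only band intensity and 100% = blank gel background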
- condition-details: at 10 µM, stronger effect = higher value
Recorded inhibition for the following compounds
measurement-kind: inhibition (%)

In [3]: df
Out[3]:
                            molecule_smiles  value_measured
0  Cc1cc(N2CCN(C(=O)n3ncc(-c4ccc(OC(F)(F)F)cc4)n3)CC2)c2ccccc2n1              96
1  Cc1cc(N2CCN(C(=O)Oc3ccc(-c4ccc(Br)cc4)cc3)CC2)c2ccccc2n1               0
2           O=C(Oc1noc2cc(Cl)ccc12)N1CCCCC1               0
3          O=C(N1CCOCC1)n1oc2cc(Cl)ccc2c1=O              54
4  Cc1cc(N2CCN(C(=O)Oc3ccc(C4CCCCC4)cc3)CC2)c2ccccc2n1               0
5  COc1ccc(-c2cnn(C(=O)N3CCN(c4cc(C)nc5ccccc45)CC3)n2)cc1              95
6  Cc1cc(N2CCN(C(=O)n3oc4cc(Cl)ccc4c3=O)CC2)c2ccccc2n1              24

----------
- Tested on: LYPLA2
- method-description: competitive ABPP of pPAFAH versus proteome hydrolases – biochemical, gel-based, FP-Rh fluorescence, complex proteome, SAR compounds, selectivity assay for pPAFAH inhibitor project, SAR follow-up (AID 588774);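 for inhibition: 0% = DMSO-only band intensity and 100% = blank gel background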
- condition-details: inhibition, at 1 µM, stronger effect = higher value
measurement-kind: inhibition

>>> df
                            molecule_smiles     tgt  value_measured
0  Cc1cc(N2CCN(C(=O)n3oc4cc(Cl)ccc4c3=O)CC2)c2ccccc2n1  LYPLA2              6%
1          O=C(N1CCOCC1)n1oc2cc(Cl)ccc2c1=O  LYPLA2             33%
2  Cc1cc(N2CCN(C(=O)n3ncc(-c4ccccc4)n3)CC2)c2ccccc2n1  LYPLA2             55%
3  Cc1cc(N2CCN(C(=O)n3ncc(-c4ccc(Cl)c(Cl)c4)n3)CC2)c2ccccc2n1  LYPLA2             18%
4  Cc1cc(N2CCN(C(=O)n3ncc(-c4ccc(OC(F)(F)F)cc4)n3)CC2)c2ccccc2n1  LYPLA2             39%
5  Cc1cc(N2CCN(C(=O)n3ncc(-c4ccc([N+](=O)[O-])cc4)n3)CC2)c2ccccc2n1  LYPLA2             58%
6  COc1ccc(-c2cnn(C(=O)N3CCN(c4cc(C)nc5ccccc45)CC3)n2)cc1  LYPLA2             56%

----------
- method-description: competitive ABPP of pPAFAH versus proteome hydrolases – biochemical, gel-based, FP-Rh fluorescence, complex proteome, SAR compounds, selectivity assay for pPAFAH inhibitor project, SAR follow-up (AID 588774)
- condition-details: FAAH, anti-targets inhibited, at 10 µM
Items are presented alongside their recorded anti-target count.
measurement-kind: anti-target count

                            molecule_smiles  value_measured
0  Cc1cc(N2CCN(C(=O)Oc3ccc(C4CCCC4)cc3)CC2)c2ccccc2n1               0
1           O=C(Oc1noc2cc(Cl)ccc12)N1CCOCC1               3
2           O=C(Oc1noc2cc(Cl)ccc12)N1CCCCC1               2
3  Cc1cc(N2CCN(C(=O)n3ncc(-c4ccccc4)n3)CC2)c2ccccc2n1               9
4  Cc1cc(N2CCN(C(=O)n3ncc(-c4ccc([N+](=O)[O-])cc4)n3)CC2)c2ccccc2n1               9
5  Cc1cc(N2CCN(C(=O)Oc3ccc(-c4ccc(Br)cc4)cc3)CC2)c2ccccc2n1               0
6  Cc1cc(N2CCN(C(=O)Oc3ccc([N+](=O)[O-])cc3)CC2)c2ccccc2n1               2
7  Cc1cc(N2CCN(C(=O)n3ncc(-c4ccc(Cl)c(Cl)c4)n3)CC2)c2ccccc2n1               8
8  Cc1cc(N2CCN(C(=O)Oc3ccc(-c4ccccc4)cc3)CC2)c2ccccc2n1               0
9  Cc1cc(N2CCN(C(=O)Oc3ccc(-n4cccc4)cc3)CC2)c2ccccc2n1               0

----------
- method-description: competitive ABPP of pPAFAH versus proteome hydrolases – biochemical, gel-based, FP-Rh fluorescence, complex proteome, SAR compounds, selectivity assay for pPAFAH inhibitor project, SAR follow-up (AID 588774)
- condition-details: LYPLA1, anti-targets inhibited, at 10 µM
Outcome label depends on anti-target count relative to 1: at/above gives TRUE, below gives FALSE.

>>> print(df.to_string())
                            molecule_smiles  label_value
0  Cc1cc(N2CCN(C(=O)Oc3noc4cc(Cl)ccc34)CC2)c2ccccc2n1         TRUE
1  Cc1cc(N2CCN(C(=O)Oc3ccc(-c4ccccc4)cc3)CC2)c2ccccc2n1        FALSE
2           O=C(Oc1noc2cc(Cl)ccc12)N1CCOCC1         TRUE
3  Cc1cc(N2CCN(C(=O)Oc3ccc(C4CCCC4)cc3)CC2)c2ccccc2n1        FALSE
4  Cc1cc(N2CCN(C(=O)n3ncc(-c4ccccc4)n3)CC2)c2ccccc2n1         TRUE
5  Cc1cc(N2CCN(C(=O)n3ncc(-c4ccc([N+](=O)[O-])cc4)n3)CC2)c2ccccc2n1         TRUE
6  Cc1cc(N2CCN(C(=O)Oc3ccc(-c4ccc(Br)cc4)cc3)CC2)c2ccccc2n1        FALSE
7  COc1ccc(-c2cnn(C(=O)N3CCN(c4cc(C)nc5ccccc45)CC3)n2)cc1         TRUE
8  Cc1cc(N2CCN(C(=O)Oc3ccc(C4CCCCC4)cc3)CC2)c2ccccc2n1        FALSE

----------
- tgt: Platelet-activating factor acetylhydrolase (Mus musculus) (UniProt Q60963)
- Sequence (Q60963 whole entry, looked up): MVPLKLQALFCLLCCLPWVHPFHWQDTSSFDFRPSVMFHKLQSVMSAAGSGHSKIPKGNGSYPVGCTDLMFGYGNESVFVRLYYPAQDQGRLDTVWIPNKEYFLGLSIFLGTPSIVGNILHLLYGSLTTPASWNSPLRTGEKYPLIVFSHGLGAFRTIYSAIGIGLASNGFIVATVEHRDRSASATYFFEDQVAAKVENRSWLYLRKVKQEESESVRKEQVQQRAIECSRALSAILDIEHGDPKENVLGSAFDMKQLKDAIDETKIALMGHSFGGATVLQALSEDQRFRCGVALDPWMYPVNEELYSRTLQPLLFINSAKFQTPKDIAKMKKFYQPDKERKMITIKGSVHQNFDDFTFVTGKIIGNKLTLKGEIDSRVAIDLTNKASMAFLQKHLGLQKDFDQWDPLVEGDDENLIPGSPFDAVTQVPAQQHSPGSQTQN
- method-description: competitive ABPP of pPAFAH versus proteome hydrolases – biochemical, gel-based, FP-Rh fluorescence, complex proteome, SAR compounds, selectivity assay for pPAFAH inhibitor project, SAR follow-up (AID 588774);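 for inhibition: 0% = DMSO-only band intensity and 100% = blank gel background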
- condition-details: pPAFAH, inhibition, at 0.1 µM, stronger effect = higher value
Listed compounds paired with reported inhibition
measurement-kind: inhibition (%)

In [3]: df
Out[3]:
                            molecule_smiles  measurement_kind  value_measured
0  Cc1cc(N2CCN(C(=O)Oc3ccc(C(F)(F)F)cc3)CC2)c2ccccc2n1        inhibition              46
1  COc1ccc(-c2cnn(C(=O)N3CCN(c4cc(C)nc5ccccc45)CC3)n2)cc1        inhibition              85
2  Cc1cc(N2CCN(C(=O)Oc3ccc([N+](=O)[O-])cc3)CC2)c2ccccc2n1        inhibition              47
3  Cc1cc(N2CCN(C(=O)n3ncc(-c4ccc(Cl)c(Cl)c4)n3)CC2)c2ccccc2n1        inhibition              97
4  Cc1cc(N2CCN(C(=O)n3ncc(-c4ccccc4)n3)CC2)c2ccccc2n1        inhibition              99
5  Cc1cc(N2CCN(C(=O)n3ncc(-c4ccc([N+](=O)[O-])cc4)n3)CC2)c2ccccc2n1        inhibition              97
6  Cc1cc(N2CCN(C(=O)n3ncc(-c4ccc(OC(F)(F)F)cc4)n3)CC2)c2ccccc2n1        inhibition             100
7           O=C(Oc1noc2cc(Cl)ccc12)N1CCCCC1        inhibition              82
8  Cc1cc(N2CCN(C(=O)Oc3ccc(-n4cccc4)cc3)CC2)c2ccccc2n1        inhibition              35

----------
- tgt: Platelet-activating factor acetylhydrolase (Mus musculus) (UniProt Q60963)
- method-description: competitive ABPP of pPAFAH versus proteome hydrolases – biochemical, gel-based, FP-Rh fluorescence, complex proteome, SAR compounds, selectivity assay for pPAFAH inhibitor project, SAR follow-up (AID 588774)
- condition-details: pPAFAH, at 10 µM
The source made the active and inactive calls.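 Rule for the calls: active = target enzyme inhibited at least 50% at a set dose, and selective over every off-target enzyme by a set factor; inactive = weaker inhibition or too little selectivity.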
Outcomes: yes (1) for active, no (0) for inactive

>>> df
                            molecule_smiles                                       tgt  label_value
0  Cc1cc(N2CCN(C(=O)n3oc4cc(Cl)ccc4c3=O)CC2)c2ccccc2n1  Platelet-activating factor acetylhydrolase (Mus musculus) (UniProt Q60963)      yes (1)
1  Cc1cc(N2CCN(C(=O)Oc3ccc(-n4cccc4)cc3)CC2)c2ccccc2n1  Platelet-activating factor acetylhydrolase (Mus musculus) (UniProt Q60963)       no (0)
2  Cc1cc(N2CCN(C(=O)Oc3ccc(C4CCCC4)cc3)CC2)c2ccccc2n1  Platelet-activating factor acetylhydrolase (Mus musculus) (UniProt Q60963)       no (0)
3          O=C(N1CCOCC1)n1oc2cc(Cl)ccc2c1=O  Platelet-activating factor acetylhydrolase (Mus musculus) (UniProt Q60963)      yes (1)
4  Cc1cc(N2CCN(C(=O)Oc3ccc(-c4ccc(Br)cc4)cc3)CC2)c2ccccc2n1  Platelet-activating factor acetylhydrolase (Mus musculus) (UniProt Q60963)       no (0)
5  Cc1cc(N2CCN(C(=O)Oc3ccc(-c4ccccc4)cc3)CC2)c2ccccc2n1  Platelet-activating factor acetylhydrolase (Mus musculus) (UniProt Q60963)      yes (1)
6  Cc1cc(N2CCN(C(=O)Oc3ccc([N+](=O)[O-])cc3)CC2)c2ccccc2n1  Platelet-activating factor acetylhydrolase (Mus musculus) (UniProt Q60963)       no (0)
